Reference for the values: patent US20240043444A1

Tested on: ATXN3 Pre-mRNA (exon 4 skipping)
Test: RT-qPCR Assay to Quantify Exon 4 Skipping in ATXN3 Pre-mRNA in Cells
Format: cell-based
Conditions: cells incubated with compound 24 h, normalised to GAPDH, 7-point concentration curve
measurement name: IC50

// query Read off the recorded IC50 for `Cc1c(C[C@H](C)N)sc2c(NCc3ncccn3)nc(Cl)nc12`
// result 2000 to 3000 nM

// query Tell me IC50 reported for `Cc1c(C[C@H](C)N)sc2c(NCc3ccc(F)s3)nc(Cl)nc12`
// result ≤ 500 nM

// query Look up and report measured IC50 for this entry: `Cc1c(C[C@H](C)N)sc2c(NCc3ccco3)nc(Br)nc12`
// result ≤ 500 nM

// query Look up IC50 of `Cc1c(C[C@@H](N)CCO)sc2c(NCc3ccco3)nc(Cl)nc12` and report it.
// result ≤ 500 nM
